Entries annotated with measured Pre-emergence action against AVEFA in %
- Test system: AVEFA
- Experiment Notes: Pre-emergence herbicidal action against AVEFA
- Assay type: in vivo, Avena fatua
- Experimental Parameters: 320 g/ha, scored visually after 3 weeks vs untreated controls
Reported Property: Pre-emergence action against AVEFA in % (%)

1. CC#Cc1cc(C)c(C2=C(OC(=O)OCC)C3(CCC(COCCC)C3)NC2=O)c(Cl)c1 (stereo not shown) [Example P-86]    80
2. CC#Cc1cc(C)c(C2=C(OC(=O)C(C)C)C3(CCC(COCC)C3)NC2=O)c(Br)c1 (stereo not shown) [Example P-36]    80
3. CC#Cc1cc(F)c(C2=C(OC(=O)OCC)C3(CCC(COC)C3)NC2=O)c(OC)c1 (stereo not shown) [Example P-63]    90
4. CC#Cc1cc(C)c(C2=C(OC(=O)OCC)C3(CCC(COC)C3)NC2=O)c(Br)c1 (stereo not shown) [Example P-31]    100
5. CC#Cc1cc(C)c(C2=C(OC(=O)C(C)C)C3(CCC(COC)C3)NC2=O)c(Br)c1 (stereo not shown) [Example P-32]    90
6. CC#Cc1cc(C)c(C2=C(OC(=O)C(C)C)C3(CCC(COCC)C3)NC2=O)c(OC)c1 (stereo not shown) [Example P-50]    100
7. CC#Cc1cc(C)c(C2=C(O)C3(CCC(COC)C3)NC2=O)c(Br)c1 (stereo not shown) [Example I-19]    100
8. CC#Cc1cc(Br)c(C2=C(OC(=O)OCC)C3(CCC(COC)C3)NC2=O)c(OC)c1 (stereo not shown) [Example P-08]    100
9. CC#Cc1cc(Br)c(C2=C(O)C3(CCC(COC)C3)NC2=O)c(OC)c1 (stereo not shown) [Example I-10]    100
10. CC#Cc1cc(F)c(C2=C(OC(=O)C(C)C)C3(CCC(COCC)C3)NC2=O)c(OC)c1 (stereo not shown) [Example P-67]    80
11. CC#Cc1cc(Cl)c(C2=C(O)C3(CCC(COC)C3)NC2=O)c(OC)c1 (stereo not shown) [Example I-72]    100
12. CC#Cc1cc(F)c(C2=C(OC(=O)OCC)C3(CCC(COCC)C3)NC2=O)c(OC)c1 (stereo not shown) [Example P-61]    90
13. C=CCOCC1CCC2(C1)NC(=O)C(c1c(C)cc(C#CC)cc1OC)=C2O (stereo not shown) [Example I-47]    90
14. CC#Cc1cc(C)c(C2=C(OC(=O)OCC)C3(CCC(COCCC)C3)NC2=O)c(OC)c1 (stereo not shown) [Example P-81]    100
15. C#CCOCC1CCC2(C1)NC(=O)C(c1c(C)cc(C#CC)cc1Cl)=C2O (stereo not shown) [Example I-79]    100
16. C#CCOCC1CCC2(C1)NC(=O)C(c1c(C)cc(C#CC)cc1OC)=C2OC(=O)OCC (stereo not shown) [Example P-103]    100
